test name: clinical
cond: human, plasma, 65 mg
assay readout: AUC (µg·h/mL)
Provide the reading as a plain figure in µg·h/mL.

For `C#CCN(Cc1cc2c(=O)[nH]c(C)nc2cc1C)c1ccc(C(=O)N[C@@H](CCc2nnn[nH]2)C(=O)O)c(F)c1` the molecule record lists AUC as 140

* * *

test name: clinical
cond: human, plasma, 65 mg
assay readout: Cmax (ng/mL)
Provide the reading as a plain figure in ng/mL.

For C#CCN(Cc1cc2c(=O)[nH]c(C)nc2cc1C)c1ccc(C(=O)N[C@@H](CCc2nnn[nH]2)C(=O)O)c(F)c1 [BGC9331] the compound record lists Cmax as 10400
